- TARGET OF ASSAY: Cyclin-dependent kinase 5/CDK5 activator 1 (Homo sapiens, UniProt Q00535)
- Sequence (Q00535 whole entry): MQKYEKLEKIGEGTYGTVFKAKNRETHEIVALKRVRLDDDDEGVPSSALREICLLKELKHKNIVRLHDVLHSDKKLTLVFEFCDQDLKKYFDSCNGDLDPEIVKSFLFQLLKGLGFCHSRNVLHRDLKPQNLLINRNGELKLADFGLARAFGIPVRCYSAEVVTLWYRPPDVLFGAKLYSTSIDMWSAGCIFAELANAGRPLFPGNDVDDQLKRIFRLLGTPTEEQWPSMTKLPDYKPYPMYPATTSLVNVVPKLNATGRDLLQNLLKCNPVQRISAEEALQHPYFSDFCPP
- Sequence (Q15078 whole entry, further chain): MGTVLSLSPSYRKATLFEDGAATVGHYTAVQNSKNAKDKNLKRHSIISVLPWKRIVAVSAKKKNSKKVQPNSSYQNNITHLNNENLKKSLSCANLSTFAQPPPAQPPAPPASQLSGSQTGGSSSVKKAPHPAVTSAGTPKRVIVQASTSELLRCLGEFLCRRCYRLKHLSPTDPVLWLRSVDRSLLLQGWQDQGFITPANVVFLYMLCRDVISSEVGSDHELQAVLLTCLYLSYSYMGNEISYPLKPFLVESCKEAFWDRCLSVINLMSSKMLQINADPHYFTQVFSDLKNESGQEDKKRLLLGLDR
- TEST DETAILS: Inhibitory activity against CDK5/p25
ENDPOINT NAME: IC50

Worked cases, answers included:
>  <CHEMICAL SMILES>
O=C1c2c(c3c4cc(O)ccc4[nH]c3c3ccccc23)C(=O)N1C(CO)CO

>  <RESULT>
> 10 µM

$$$$
>  <CHEMICAL SMILES>
O=C1c2c(c3c4ccccc4[nH]c3c3ccccc23)C(=O)N1CCc1c[nH]cn1

>  <RESULT>
> 10 µM

$$$$
>  <CHEMICAL SMILES>
CN1C(=O)c2c(c3c4ccccc4[nH]c3c3ccccc23)C1=O

>  <RESULT>
> 10 µM

$$$$
>  <CHEMICAL SMILES>
O=C1NC(=O)c2c1c1ccccc1c1[nH]c3ccc(O)cc3c21

>  <RESULT>
0.25 µM

$$$$
>  <CHEMICAL SMILES>
O=C1c2c(c3c4ccccc4[nH]c3c3ccccc23)C(=O)N1C(CO)CO

>  <RESULT>
> 10 µM

$$$$

Request - read-out IC50 | tested on Cyclin-dependent kinase 5/CDK5 activator 1 (Homo sapiens, UniProt Q00535) | molecule `O=C1c2c(c3c4cc(O)ccc4[nH]c3c3ccccc23)C(=O)N1CCc1c[nH]cn1`
> 10 µM

Request - read-out IC50 | tested on Cyclin-dependent kinase 5/CDK5 activator 1 (Homo sapiens, UniProt Q00535) | molecule `O=C1OC(=O)c2c1c1ccccc1c1[nH]c3ccc(O)cc3c21`
> 10 µM

Request - read-out IC50 | tested on Cyclin-dependent kinase 5/CDK5 activator 1 (Homo sapiens, UniProt Q00535) | molecule `CN1C(=O)c2c(c3c4cc(O)ccc4[nH]c3c3ccccc23)C1=O`
> 10 µM

Request - read-out IC50 | tested on Cyclin-dependent kinase 5/CDK5 activator 1 (Homo sapiens, UniProt Q00535) | molecule `CN(C)CCN1C(=O)c2c(c3c4cc(O)ccc4[nH]c3c3ccccc23)C1=O`
> 10 µM

Request - read-out IC50 | tested on Cyclin-dependent kinase 5/CDK5 activator 1 (Homo sapiens, UniProt Q00535) | molecule `O=C1OC(=O)c2c1c1ccccc1c1[nH]c3ccccc3c21`
> 10 µM

Request - read-out IC50 | tested on Cyclin-dependent kinase 5/CDK5 activator 1 (Homo sapiens, UniProt Q00535) | molecule `CN(C)CCN1C(=O)c2c(c3c4ccccc4[nH]c3c3ccccc23)C1=O`
> 10 µM

Request - read-out IC50 | tested on Cyclin-dependent kinase 5/CDK5 activator 1 (Homo sapiens, UniProt Q00535) | molecule `O=C1NC(=O)c2c1c1ccccc1c1[nH]c3ccccc3c21`
8.5 µM
